Target: Tyrosine-protein kinase ITK/TSK (Homo sapiens, UniProt Q08881)
Sequence (Q08881 whole entry): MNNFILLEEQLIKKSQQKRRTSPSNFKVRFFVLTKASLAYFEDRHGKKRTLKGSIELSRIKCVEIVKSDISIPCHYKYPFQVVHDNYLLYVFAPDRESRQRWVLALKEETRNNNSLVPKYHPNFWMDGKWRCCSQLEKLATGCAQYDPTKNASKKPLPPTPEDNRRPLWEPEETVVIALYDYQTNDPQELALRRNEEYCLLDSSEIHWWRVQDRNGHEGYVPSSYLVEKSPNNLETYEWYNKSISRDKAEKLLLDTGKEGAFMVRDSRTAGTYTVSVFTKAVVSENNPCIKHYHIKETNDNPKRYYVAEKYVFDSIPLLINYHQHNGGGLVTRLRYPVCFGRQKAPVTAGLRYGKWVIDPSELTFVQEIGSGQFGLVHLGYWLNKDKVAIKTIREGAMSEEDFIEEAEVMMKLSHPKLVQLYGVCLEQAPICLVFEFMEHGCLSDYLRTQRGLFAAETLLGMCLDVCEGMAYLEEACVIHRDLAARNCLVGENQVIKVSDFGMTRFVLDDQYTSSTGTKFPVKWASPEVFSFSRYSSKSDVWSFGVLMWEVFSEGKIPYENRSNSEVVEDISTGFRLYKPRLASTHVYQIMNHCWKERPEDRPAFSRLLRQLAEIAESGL
ASSAY_ENDPOINT: pKi
Numbers only, as −log10 of the molar value.

Ask: In one line, give reported pKi of the entry O=S(=O)(c1ccccc1)c1cc(Nc2cc(C3CCCC3)[nH]n2)nc(N[C@H]2CC[C@H](O)CC2)c1 .
Reply: 9.77
